# systemName: ATM (Homo sapiens, UniProt Q13315)
# Construct: detecting phosphorylation of Chk2 in a human non-small cell lung cancer cell line NCI-H460 (ATCC company); host or cells: NCI-H460 human non-small cell lung cancer cells
# Sequence (Q13315 whole entry): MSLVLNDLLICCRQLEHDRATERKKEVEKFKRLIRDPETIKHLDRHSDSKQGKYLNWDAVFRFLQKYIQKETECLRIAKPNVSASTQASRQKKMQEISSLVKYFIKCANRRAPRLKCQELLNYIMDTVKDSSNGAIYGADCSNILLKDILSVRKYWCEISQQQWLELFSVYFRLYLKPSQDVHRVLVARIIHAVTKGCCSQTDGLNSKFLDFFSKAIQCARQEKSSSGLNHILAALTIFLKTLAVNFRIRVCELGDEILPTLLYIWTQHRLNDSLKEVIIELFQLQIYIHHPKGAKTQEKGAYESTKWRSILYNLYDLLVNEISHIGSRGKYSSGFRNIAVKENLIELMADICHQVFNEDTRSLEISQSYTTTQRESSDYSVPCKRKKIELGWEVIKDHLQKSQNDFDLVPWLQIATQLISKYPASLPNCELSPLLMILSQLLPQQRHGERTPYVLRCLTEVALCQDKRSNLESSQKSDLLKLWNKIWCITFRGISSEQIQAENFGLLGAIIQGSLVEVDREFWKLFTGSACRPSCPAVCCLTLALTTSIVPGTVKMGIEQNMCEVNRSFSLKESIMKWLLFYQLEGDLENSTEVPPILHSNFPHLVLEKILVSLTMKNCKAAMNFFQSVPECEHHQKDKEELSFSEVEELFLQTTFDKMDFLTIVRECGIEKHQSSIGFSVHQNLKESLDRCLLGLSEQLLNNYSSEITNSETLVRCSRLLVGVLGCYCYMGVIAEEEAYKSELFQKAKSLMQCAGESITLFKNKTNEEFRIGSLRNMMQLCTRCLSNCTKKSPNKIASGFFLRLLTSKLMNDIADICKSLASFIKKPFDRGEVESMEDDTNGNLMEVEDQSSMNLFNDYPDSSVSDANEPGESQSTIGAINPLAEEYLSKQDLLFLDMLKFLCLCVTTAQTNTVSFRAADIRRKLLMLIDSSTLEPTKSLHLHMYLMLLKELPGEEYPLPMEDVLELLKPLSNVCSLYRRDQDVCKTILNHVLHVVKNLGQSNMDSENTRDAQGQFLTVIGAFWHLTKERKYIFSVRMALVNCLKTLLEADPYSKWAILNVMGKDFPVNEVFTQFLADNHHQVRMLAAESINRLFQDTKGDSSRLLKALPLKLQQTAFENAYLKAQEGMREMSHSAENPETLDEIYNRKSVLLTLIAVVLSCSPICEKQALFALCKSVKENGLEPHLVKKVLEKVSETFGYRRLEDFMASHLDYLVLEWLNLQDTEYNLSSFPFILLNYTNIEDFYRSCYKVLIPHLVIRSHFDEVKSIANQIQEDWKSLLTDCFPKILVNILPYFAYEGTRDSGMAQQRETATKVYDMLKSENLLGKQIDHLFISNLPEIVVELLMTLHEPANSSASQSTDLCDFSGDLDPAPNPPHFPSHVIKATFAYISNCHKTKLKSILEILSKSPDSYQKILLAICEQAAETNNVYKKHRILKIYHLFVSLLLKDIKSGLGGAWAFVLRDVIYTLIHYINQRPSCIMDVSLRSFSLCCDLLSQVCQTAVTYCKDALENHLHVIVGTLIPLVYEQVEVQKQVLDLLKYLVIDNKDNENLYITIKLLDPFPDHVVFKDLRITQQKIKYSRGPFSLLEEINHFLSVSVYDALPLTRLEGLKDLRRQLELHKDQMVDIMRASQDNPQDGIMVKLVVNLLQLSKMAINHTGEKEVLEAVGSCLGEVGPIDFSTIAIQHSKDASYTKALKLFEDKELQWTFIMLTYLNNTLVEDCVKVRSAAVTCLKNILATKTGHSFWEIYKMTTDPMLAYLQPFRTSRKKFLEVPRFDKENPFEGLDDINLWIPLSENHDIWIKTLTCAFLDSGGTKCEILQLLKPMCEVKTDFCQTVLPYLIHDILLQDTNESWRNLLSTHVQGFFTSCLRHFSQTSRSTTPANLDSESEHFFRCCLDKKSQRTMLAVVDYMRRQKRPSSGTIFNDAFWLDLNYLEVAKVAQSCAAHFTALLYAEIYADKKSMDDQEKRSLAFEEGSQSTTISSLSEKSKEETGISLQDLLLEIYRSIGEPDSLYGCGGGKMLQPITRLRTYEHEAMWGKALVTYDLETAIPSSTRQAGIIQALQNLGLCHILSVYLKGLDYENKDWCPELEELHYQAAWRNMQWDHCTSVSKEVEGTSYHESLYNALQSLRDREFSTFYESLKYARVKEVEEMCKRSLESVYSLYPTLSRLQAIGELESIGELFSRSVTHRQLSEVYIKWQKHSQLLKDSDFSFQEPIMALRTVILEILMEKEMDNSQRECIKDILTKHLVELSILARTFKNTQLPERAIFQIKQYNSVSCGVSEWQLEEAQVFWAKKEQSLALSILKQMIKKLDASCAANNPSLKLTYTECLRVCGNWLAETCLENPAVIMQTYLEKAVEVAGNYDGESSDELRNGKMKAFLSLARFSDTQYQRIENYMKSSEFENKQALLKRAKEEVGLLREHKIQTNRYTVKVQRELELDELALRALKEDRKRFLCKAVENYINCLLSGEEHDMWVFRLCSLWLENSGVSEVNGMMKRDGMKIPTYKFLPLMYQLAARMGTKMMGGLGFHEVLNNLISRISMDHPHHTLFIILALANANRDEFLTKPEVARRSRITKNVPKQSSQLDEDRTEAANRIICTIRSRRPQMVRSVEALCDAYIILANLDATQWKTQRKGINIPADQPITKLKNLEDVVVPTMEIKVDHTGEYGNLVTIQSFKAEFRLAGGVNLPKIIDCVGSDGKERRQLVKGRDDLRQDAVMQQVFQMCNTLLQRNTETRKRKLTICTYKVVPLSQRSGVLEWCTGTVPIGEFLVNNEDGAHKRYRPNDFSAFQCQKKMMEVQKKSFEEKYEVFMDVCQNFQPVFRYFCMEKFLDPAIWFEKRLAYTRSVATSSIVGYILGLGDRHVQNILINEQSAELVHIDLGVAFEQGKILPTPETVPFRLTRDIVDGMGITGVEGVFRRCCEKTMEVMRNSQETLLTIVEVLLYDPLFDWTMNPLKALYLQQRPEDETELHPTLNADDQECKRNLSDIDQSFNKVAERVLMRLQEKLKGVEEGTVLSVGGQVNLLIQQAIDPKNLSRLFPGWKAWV
# experimentalDetails: ATM inhibition test (phosphorylation of Chk2 generated by ionizing radiation, AlphaScreen SureFire)
# Format: cell-based
# settings: phosphorylated Chk2 in NCI-H460 cells, ionizing radiation 8Gy, 1 hour after test compound treatment; read-out: ATM inhibitory activity
pIC50: −log10 of the molar value.
Recorded pIC50 for the following compounds

Observe how each entry below is paired with its result.
Looking up O=c1cc(N2CCOCC2)cc(-c2cccc3c2Oc2ccc(NCc4cncc(-n5cccc5)c4)cc2S3)[nH]1 , I found its pIC50 recorded as > 7.00

Looking up O=c1cc(N2CCOCC2)cc(-c2cccc3c2Oc2ccc(NC4CCN(c5ccncc5)CC4)cc2C3)[nH]1 , I found its pIC50 recorded as > 7.00

New cases:
Looking up Cc1ccc(C(CCCN(C)C)Nc2ccc3c(c2)Sc2cccc(-c4cc(N5CCOCC5)cc(=O)[nH]4)c2S3)nc1 (single isomer, unassigned) [Example 1-51-4] , I found its pIC50 recorded as 6.30 to 7.00
